EC50 values, listed per item
System: cells, GFP-channel autofluorescence, high-content imaging
Test: cell-permeable autofluorescent compounds in GFP channel, dose response, artefact control, imaging, high-content imaging (AID 2124)
Records with an inconclusive call do not appear. Activity calls are given as the source filed them. The rule behind the calls is not given here; tested in MIN6 cells.

CCCN1C(=O)/C(=C/c2c(N3CCNC(=O)C3CC(=O)OCC)nc3c(C)cccn3c2=O)SC1=S (stereo unspecified); 5.56 µM
Cc1cc(/C=C2/C(=O)N(C)C(=S)N2C)ccc1N1CCCC1; 3.02 µM
CCCN1C(=O)S/C(=C/c2ccc(N3CCOCC3)o2)C1=O; 5.4 µM
COc1ccc2c(c1)NC(c1ccc(N(C)C)cc1)c1cccn1-2 (stereo unspecified); 3.12 µM
Cc1ccc(CNc2ccc3c(c2)OCO3)cc1; 6.18 µM

Now consider a different compound.
What value of measured EC50 is listed for CCCCn1nc(-c2ccccc2)c2nc3ccccc3nc21 ?
13.8 µM (inactive)
